Recorded protein stability index by entry
# Assay explanation: protein stability index of a GFP-peptide fusion (yeast GPS) (PSI 1-4); higher = more stable; sorted into four equal gates, so the index is relative within each strain
# Condition notes: doa10∆
Readout kind: protein stability index

Sequence content	Result number
TQVALNESEKDQWLEEY [UBP6]	3
LLKDIFANNLKSAISNN [SIR4]	2.46
GVVVLRDREPKEPVALI [RPN2]	3.5
KFQGVLESEAQKKATMS [RPC34]	3.54
FIYGMSAKDHPKVKEIK [PRP8]	2.53
QRCKSNAISLQLKYDTS [YIL149C/MLP2]	1.78
VDSRNETDHKTNENGET [SRB4]	3.26
STTNSDVSLLLQRDLFI [RGR1]	2.76
VKAILMQRHVKVDGKVR [RPS4A]	3.13
KRQLIKERNQKFQLQNQ [YIL149C/MLP2]	2.75
FQALDSEETQFKYVEDR [ITC1]	2.88
NLSAFKIVYIAPLKALV [BRR2]	1.55
GGNNNNNSTGIANDNVI [SWI1]	2.87
REPDFWVIRKQRRTNNS [MED6]	3.51
ANKTNLIESLNTIRQNV [YML103C/NUP188]	1.57
GVQSNGDQFLRYVNLLG [PRE4]	2.6
GNVVMDIGKGAETTFLQ [RPC53]	3.26
ELEKYNELERNRKIYQF [SMC3]	2.34
LAKSGSTEETTANTGTI [TAF14]	2.61
ATIRETYEIICDQTKSV [RRP43]	2.87
VVQDSQTATQLLERGRL [SMC2]	2.9
SAWIWPMDEETKLYFDV [RPC25]	2.17
VPKHMLDKLDEILYYQI [AAR2]	2.91
DAKTSYPNEVLKFNHGN [REC8]	2.78
LQGDLTFTKKCLENARS [SIR4]	3.23
VTIREQINIMPSLKAHF [SIR3]	2.53
PQNTTATTGGLFGSKPQ [YGR119C/NUP57]	3.33
FVIHIQEKNFQTGIFVY [RPB5]	1.98
LLLDNGFNMKKITTSTE [SRP68]	2.19
DKVTSQAVNNLIKTLST [RPP1]	2.53

----------
Recorded protein stability index by entry
# Assay explanation: protein stability index of a GFP-peptide fusion (yeast GPS) (PSI 1-4); higher = more stable; sorted into four equal gates, so the index is relative within each strain
# Condition notes: san1∆

Sequence content	protein stability index
GSRVLIFSQMSRLLDIL [ISW2]	3.18
MGPLYQNFAEFMTKLLE [IRR1]	3.03
NLLKDEGVTPGRIRTTR [SSN3]	3.26
EMDSVSKSMKFSRRFDC [CSN9]	2.71
ETLVLSYFSPINSSNEA [YCG1]	1.25
TGWISKCTAEGIKVSLL [RPC25]	2.66
MKYLAAYLLLVQGGNAA [RPP2B]	1.78
NVFVILMDKCLPKVRIR [DIS3]	1.87
SYFLQERYFDCCTKFFT [PCI8]	1.76
SPTSPSYSPTSPSYSPT [RPO21]	2.72
FIDHHAAIRQPTRYVLI [POP1]	1.77
SAIRQVFERFKTKILEV [IRR1]	1.71
ALQILNSGIIPGNRNAD [FAS2]	2.72
SPIKNGSCTRQLAGKSG [YOR098C/NUP1]	2.35
LQDLISVYGLDDISRQV [ROX3]	2.84
